Hey, just so you know, these numbers are from patent US11141462B2.

- Test system: OA articular chondrocytes
- Test details: OA chondrocyte phenotype gene expression screening of BMP-7 peptides (RT-qPCR)
- Assay type: cell-based, human
- Test conditions: Table 2 (FIG. 4: 10 nM, 24 hours, RT-qPCR, 28S rRNA normalized); vs untreated OA articular chondrocytes
Recorded endpoint: BAPX1/NKX3.2

Example entries begin here.
Substance: 16 (DSSNVILKKYRNMVVRASGS; listed as Homo sapiens) [compound 16]
Recorded endpoint: BAPX1/NKX3.2
Value measured: +

Substance: 2 (FINPETVPKPSSAPTQLNAI; listed as Homo sapiens) [compound 2]
Recorded endpoint: BAPX1/NKX3.2
Value measured: —

Substance: 14 (LYFDDSSNVILKKYRNMVVR; listed as Homo sapiens) [compound 14]
Recorded endpoint: BAPX1/NKX3.2
Value measured: +

Substance: 8 (SSAPTQLNAISVLYFDDSSN; listed as Homo sapiens) [compound 8]
Recorded endpoint: BAPX1/NKX3.2
Value measured: +

Substance: 11 (LNAISVLYFDDSSNVILKKY; listed as Homo sapiens) [compound 11]
Recorded endpoint: BAPX1/NKX3.2
Value measured: +

Substance: 4 (ETVPKPSSAPTQLNAISVLY; listed as Homo sapiens) [compound 4]
Recorded endpoint: BAPX1/NKX3.2
Value measured: —

Substance: 12 (AISVLYFDDSSNVILKKYRN; listed as Homo sapiens) [compound 12]
Recorded endpoint: BAPX1/NKX3.2
Value measured: +

Substance: 15 (FDDSSNVILKKYRNMVVRAS; listed as Homo sapiens) [compound 15]
Recorded endpoint: BAPX1/NKX3.2
Value measured: +

Turning to the following substance.
Per the records, this substance ( 3 (NPETVPKPSSAPTQLNAISV; listed as Homo sapiens) [compound 3] ) has BAPX1/NKX3.2 equal to —

* * *

- System: OA articular chondrocytes
- Test details: OA chondrocyte phenotype gene expression screening of BMP-7 peptides (RT-qPCR)
- Format: cell-based, human
- Parameters: key: [+] denotes a significantly increased expression of chondrogenic marker genes SOX9 and COL2A1, or a significantly decreased expression of OA phenotypic marker COX-2 in OA articular chondrocytes, in comparison to untreated OA articular chondrocytes
- Test conditions: Table 5; gene expression in OA articular chondrocytes vs untreated
Recorded endpoint: COX-2

Example entries begin here.
Substance: 11 (LNAISVLYFDDSSNVILKKY; listed as Homo sapiens) [compound 11]
System under test: OA articular chondrocytes
Recorded endpoint: COX-2
Value measured: +

Substance: 8 (SSAPTQLNAISVLYFDDSSN; listed as Homo sapiens) [compound 8]
System under test: OA articular chondrocytes
Recorded endpoint: COX-2
Value measured: +

Substance: 10 (TQLNAISVLYFDDSSNVILK; listed as Homo sapiens) [compound 10]
System under test: OA articular chondrocytes
Recorded endpoint: COX-2
Value measured: +

Substance: 15 (FDDSSNVILKKYRNMVVRAS; listed as Homo sapiens) [compound 15]
System under test: OA articular chondrocytes
Recorded endpoint: COX-2
Value measured: +

Turning to the following substance.
Per the records, this substance ( 9 (APTQLNAISVLYFDDSSNVI; listed as Homo sapiens) [compound 9] ) has COX-2 equal to +

* * *

- Tested on: OA articular chondrocytes
- Test details: OA chondrocyte phenotype gene expression screening of BMP-7 peptides (RT-qPCR)
- Assay type: cell-based, human
- Parameters: key: —: [-] denotes the absence of a significant effect or a significantly decreased expression of chondrogenic marker genes BAPX1/NKX3.2, or a significantly increased expression of OA phenotypic markers IL-6, ADAMTS5, COL10A, ALP and RUNX2 in OA articular chondrocytes, in comparison to untreated OA articular chondrocytes
- Test conditions: Table 1; gene expression in OA articular chondrocytes vs untreated
Recorded endpoint: RUNX2

Example entries begin here.
Substance: 24 (AIVQTLVHFINPETVPKPCC; listed as Homo sapiens) [compound 24]
System under test: OA articular chondrocytes
Value measured: —

Substance: 25 (CCAPTQLNAISVLYFDDSSN; listed as Homo sapiens) [compound 25]
System under test: OA articular chondrocytes
Value measured: —

Substance: 26 (SSNVILKKYRNMVVRACGCH; listed as Homo sapiens) [compound 26]
System under test: OA articular chondrocytes
Value measured: —

Substance: 19 (STGSKQRSQNRSKTPKNQEA; listed as Homo sapiens) [compound 19]
System under test: OA articular chondrocytes
Value measured: —

Substance: 23 (CEGECAFPLNSYMNATNHAI; listed as Homo sapiens) [compound 23]
System under test: OA articular chondrocytes
Value measured: —

Substance: 21 (SSDQRQACKKHELYVSFRDL; listed as Homo sapiens) [compound 21]
System under test: OA articular chondrocytes
Value measured: —

Substance: 22 (DLGWQDWIIAPEGYAAYYCE; listed as Homo sapiens) [compound 22]
System under test: OA articular chondrocytes
Value measured: —

Turning to the following substance.
Tested system OA articular chondrocytes; RUNX2 recorded for 20 (KTPKNQEALRMANVAENSSSSSDQRQACKK; listed as Homo sapiens) [compound 20] was —
